Measured values drawn from patent US20250376519A1 for this set.

# TARGET ENTITY: T1, human DLL3 (ACRO, DLL3-H52H4) (human, UniProt Q9NYJ7 27-492)
# T1 construct: Bought
# T1 sequence: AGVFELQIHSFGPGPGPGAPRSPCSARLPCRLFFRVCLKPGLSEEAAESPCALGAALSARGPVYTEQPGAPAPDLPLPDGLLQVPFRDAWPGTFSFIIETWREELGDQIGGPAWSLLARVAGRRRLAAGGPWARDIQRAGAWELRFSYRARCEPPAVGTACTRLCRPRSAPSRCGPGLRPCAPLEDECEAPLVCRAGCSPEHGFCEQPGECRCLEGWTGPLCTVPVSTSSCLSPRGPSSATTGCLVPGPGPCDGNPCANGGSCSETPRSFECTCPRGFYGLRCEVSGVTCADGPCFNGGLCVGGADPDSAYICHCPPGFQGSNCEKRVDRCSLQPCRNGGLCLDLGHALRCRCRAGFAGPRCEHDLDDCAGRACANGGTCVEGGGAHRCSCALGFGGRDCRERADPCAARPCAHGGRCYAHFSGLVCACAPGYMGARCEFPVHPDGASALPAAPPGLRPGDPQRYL
# ASSAY NOTES: SPR Biacore 8K, Ab captured on Protein A
QUANTITY: koff
Report as: number unit

Go through the list and state koff for each entry.
1. hu6L1H1 (antibody, human IgG1, kappa, V domains shown) VH: EVQLVQSGAEVKKPGASVKVSCKASGYTFTDYYMNWVRQAPGQRLEWMGIINPYSGVTIYNHKFKGRVTITVDKSASTAYMELSSLRSEDTAVYYCARQDSLLDYAMDYWGQGTTVTVSS VL: DIQMTQSPSSLSASVGDRVTITCHASQGISGNMGWLQQKPGKAPKGLIYHGANLEDGVPSRFSGSGSGTDFTLTISSLQPEDFATYYCVQYAQFPYTFGGGTKVEIKR
2. hu98L3H2 (antibody, human IgG1, kappa, V domains shown) VH: EVQLVESGGGLVQPGGSLRLSCAASGFTFSDYGIHWVRQAPGKGLEWVAYISSGGYTIYYADTVKGRFTISRDNAKNSLYLQMNSLRAEDTAVYYCARGDYEDIFYTMDYWGQGTTVTVSS VL: DIQMTQSPSSLSASVGDRVTITCRASRDITKFLNWYQQKPGGAVKLLIYYTSRLHSGVPSRFSGSGSGTDYTLTISSLQPEDFATYYCQQGNTLPWTFGGGTKVEIKR

Reply:
0.00225 s⁻¹
0.000732 s⁻¹
